Here, each record is paired with measured half-life data.
Assay: Stability in PBS buffer at pH 7.4 after 48 hrs
Assay type: physicochemical
measuredAttribute: half-life

* CC(=O)O[C@@]12CO[C@@H]1C[C@H](O)[C@@]1(C)C(=O)[C@H](O)C3=C(C)[C@@H](OC(=O)[C@H](OC(=O)C[C@H](O)C(=O)O)[C@@H](NC(=O)OC(C)(C)C)c4ccccc4)C[C@@](O)([C@@H](OC(=O)c4ccccc4)[C@H]21)C3(C)C | > 48 h
* CC(=O)O[C@@]12CO[C@@H]1C[C@H](O)[C@@]1(C)C(=O)[C@H](O)C3=C(C)[C@@H](OC(=O)[C@H](OC(=O)C[C@@H](O)C(=O)O)[C@@H](NC(=O)OC(C)(C)C)c4ccccc4)C[C@@](O)([C@@H](OC(=O)c4ccccc4)[C@H]21)C3(C)C | > 48 h
* CC(=O)O[C@@]12CO[C@@H]1C[C@H](O)[C@@]1(C)C(=O)[C@H](O)C3=C(C)[C@@H](OC(=O)[C@H](OC(=O)C[C@H](O)C(=O)[O-])[C@@H](NC(=O)OC(C)(C)C)c4ccccc4)C[C@@](O)([C@@H](OC(=O)c4ccccc4)[C@H]21)C3(C)C.[Na+] | > 24 h
* CC(=O)O[C@@]12CO[C@@H]1C[C@H](O)[C@@]1(C)C(=O)[C@H](O)C3=C(C)[C@@H](OC(=O)[C@H](OC(=O)CC(O)C(=O)[O-])[C@@H](NC(=O)OC(C)(C)C)c4ccccc4)C[C@@](O)([C@@H](OC(=O)c4ccccc4)[C@H]21)C3(C)C.[Na+] (mixture of isomers) | > 24 h
* CC(=O)O[C@@]12CO[C@@H]1C[C@H](OC(=O)CC(O)C(=O)O)[C@@]1(C)C(=O)[C@H](O)C3=C(C)[C@@H](OC(=O)[C@H](O)[C@@H](NC(=O)OC(C)(C)C)c4ccccc4)C[C@@](O)([C@@H](OC(=O)c4ccccc4)[C@H]21)C3(C)C (mixture of isomers) | > 48 h
* CC(=O)O[C@@]12CO[C@@H]1C[C@H](O)[C@@]1(C)C(=O)[C@H](O)C3=C(C)[C@@H](OC(=O)[C@H](OC(=O)CC(O)C(=O)O)[C@@H](NC(=O)OC(C)(C)C)c4ccccc4)C[C@@](O)([C@@H](OC(=O)c4ccccc4)[C@H]21)C3(C)C (stereo partly drawn) | > 48 h
* CC(=O)O[C@@]12CO[C@@H]1C[C@H](OC(=O)CC(O)C(=O)O)[C@@]1(C)C(=O)[C@H](OC(=O)CC(O)C(=O)O)C3=C(C)[C@@H](OC(=O)[C@H](OC(=O)CC(O)C(=O)O)[C@@H](NC(=O)OC(C)(C)C)c4ccccc4)C[C@@](O)([C@@H](OC(=O)c4ccccc4)[C@H]21)C3(C)C (mixture of isomers) | > 48 h
* CC(=O)O[C@@]12CO[C@@H]1C[C@H](O)[C@@]1(C)C(=O)[C@H](O)C3=C(C)[C@@H](OC(=O)[C@H](OC(=O)C[C@@H](O)C(=O)[O-])[C@@H](NC(=O)OC(C)(C)C)c4ccccc4)C[C@@](O)([C@@H](OC(=O)c4ccccc4)[C@H]21)C3(C)C.[Na+] | > 24 h

---

Here, each record is paired with measured solubility data.
Assay: Solubility in water
Assay type: physicochemical
measuredAttribute: solubility (µg/mL)

* CC(=O)O[C@@]12CO[C@@H]1C[C@H](O)[C@@]1(C)C(=O)[C@H](O)C3=C(C)[C@@H](OC(=O)[C@H](OC(=O)CC(O)C(=O)[O-])[C@@H](NC(=O)OC(C)(C)C)c4ccccc4)C[C@@](O)([C@@H](OC(=O)c4ccccc4)[C@H]21)C3(C)C.[Na+] (mixture of isomers) | 620
* CC(=O)O[C@@]12CO[C@@H]1C[C@H](O)[C@@]1(C)C(=O)[C@H](O)C3=C(C)[C@@H](OC(=O)[C@H](OC(=O)CC(O)C(=O)O)[C@@H](NC(=O)OC(C)(C)C)c4ccccc4)C[C@@](O)([C@@H](OC(=O)c4ccccc4)[C@H]21)C3(C)C (stereo partly drawn) | 470
* CC(=O)O[C@@]12CO[C@@H]1C[C@H](O)[C@@]1(C)C(=O)[C@H](O)C3=C(C)[C@@H](OC(=O)[C@H](OC(=O)C[C@@H](O)C(=O)O)[C@@H](NC(=O)OC(C)(C)C)c4ccccc4)C[C@@](O)([C@@H](OC(=O)c4ccccc4)[C@H]21)C3(C)C | 470
* CC(=O)O[C@@]12CO[C@@H]1C[C@H](OC(=O)CC(O)C(=O)O)[C@@]1(C)C(=O)[C@H](OC(=O)CC(O)C(=O)O)C3=C(C)[C@@H](OC(=O)[C@H](OC(=O)CC(O)C(=O)O)[C@@H](NC(=O)OC(C)(C)C)c4ccccc4)C[C@@](O)([C@@H](OC(=O)c4ccccc4)[C@H]21)C3(C)C (mixture of isomers) | 550
* CC(=O)O[C@@]12CO[C@@H]1C[C@H](O)[C@@]1(C)C(=O)[C@H](O)C3=C(C)[C@@H](OC(=O)[C@H](OC(=O)C[C@H](O)C(=O)O)[C@@H](NC(=O)OC(C)(C)C)c4ccccc4)C[C@@](O)([C@@H](OC(=O)c4ccccc4)[C@H]21)C3(C)C | 470
* CC(=O)O[C@@]12CO[C@@H]1C[C@H](OC(=O)CC(O)C(=O)O)[C@@]1(C)C(=O)[C@H](O)C3=C(C)[C@@H](OC(=O)[C@H](O)[C@@H](NC(=O)OC(C)(C)C)c4ccccc4)C[C@@](O)([C@@H](OC(=O)c4ccccc4)[C@H]21)C3(C)C (mixture of isomers) | 430
* CC(=O)O[C@@]12CO[C@@H]1C[C@H](O)[C@@]1(C)C(=O)[C@H](O)C3=C(C)[C@@H](OC(=O)[C@H](OC(=O)C[C@@H](O)C(=O)[O-])[C@@H](NC(=O)OC(C)(C)C)c4ccccc4)C[C@@](O)([C@@H](OC(=O)c4ccccc4)[C@H]21)C3(C)C.[Na+] | 620
* CC(=O)O[C@@]12CO[C@@H]1C[C@H](O)[C@@]1(C)C(=O)[C@H](O)C3=C(C)[C@@H](OC(=O)[C@H](OC(=O)C[C@H](O)C(=O)[O-])[C@@H](NC(=O)OC(C)(C)C)c4ccccc4)C[C@@](O)([C@@H](OC(=O)c4ccccc4)[C@H]21)C3(C)C.[Na+] | 620

---

System: KB
Assay: Cytotoxicity against human KB cells by MTT assay
Format: functional, cell-based
Here, each record is paired with measured IC50 data.
measuredAttribute: IC50

- CC(=O)O[C@@]12CO[C@@H]1C[C@H](O)[C@@]1(C)C(=O)[C@H](O)C3=C(C)[C@@H](OC(=O)[C@H](OC(=O)C[C@@H](O)C(=O)[O-])[C@@H](NC(=O)OC(C)(C)C)c4ccccc4)C[C@@](O)([C@@H](OC(=O)c4ccccc4)[C@H]21)C3(C)C.[Na+]: > 50 µg/mL
- CC(=O)O[C@@]12CO[C@@H]1C[C@H](OC(=O)CC(O)C(=O)O)[C@@]1(C)C(=O)[C@H](OC(=O)CC(O)C(=O)O)C3=C(C)[C@@H](OC(=O)[C@H](OC(=O)CC(O)C(=O)O)[C@@H](NC(=O)OC(C)(C)C)c4ccccc4)C[C@@](O)([C@@H](OC(=O)c4ccccc4)[C@H]21)C3(C)C (mixture of isomers): > 50 µg/mL
- CC(=O)O[C@@]12CO[C@@H]1C[C@H](OC(=O)CC(O)C(=O)O)[C@@]1(C)C(=O)[C@H](O)C3=C(C)[C@@H](OC(=O)[C@H](O)[C@@H](NC(=O)OC(C)(C)C)c4ccccc4)C[C@@](O)([C@@H](OC(=O)c4ccccc4)[C@H]21)C3(C)C (mixture of isomers): > 50 µg/mL

---

Tested on: MCF7
Test: Cytotoxicity against human MCF7 cells by MTT assay
Format: functional, cell-based
Here, each record is paired with measured IC50 data.
measuredAttribute: IC50 (µg/mL)

- CC(=O)O[C@@]12CO[C@@H]1C[C@H](O)[C@@]1(C)C(=O)[C@H](O)C3=C(C)[C@@H](OC(=O)[C@H](OC(=O)CC(O)C(=O)[O-])[C@@H](NC(=O)OC(C)(C)C)c4ccccc4)C[C@@](O)([C@@H](OC(=O)c4ccccc4)[C@H]21)C3(C)C.[Na+] (mixture of isomers): 3.6
- CC(=O)O[C@@]12CO[C@@H]1C[C@H](O)[C@@]1(C)C(=O)[C@H](O)C3=C(C)[C@@H](OC(=O)[C@H](OC(=O)CC(O)C(=O)O)[C@@H](NC(=O)OC(C)(C)C)c4ccccc4)C[C@@](O)([C@@H](OC(=O)c4ccccc4)[C@H]21)C3(C)C (some centres undefined): 39.2
